Hello, the source for this data is patent US20230158025A1, in case you need it.

Recorded Metab. Stabil. (m) values for a group of compounds are listed next.
test: rat microsomal stability (RLM); conditions: microsomal half-life

>  <compound>
CC1=C(C(=O)Nc2cc(C(=O)O)ccn2)C(c2ccccc2Cl)N=C(Nc2nc3ccc(F)cc3o2)N1 (racemic)

>  <Metab. Stabil. (m)>
>30 m

$$$$
>  <compound>
CC1=C(C(=O)NCc2cnn(Cc3ccccc3)c2)C(c2ccc(C)cc2Cl)N=C(Nc2nc3cccc(N)c3o2)N1 (centres unmarked)

>  <Metab. Stabil. (m)>
6.732 m

$$$$
>  <compound>
COc1ccc(C2N=C(Nc3nc4cccc(N)c4o3)NC(C)=C2C(=O)Nc2cc(C(=O)O)ccn2)c(Cl)c1 (racemic)

>  <Metab. Stabil. (m)>
>30 m

$$$$
>  <compound>
CC1=C(C(=O)Nc2nnc(-c3cccnc3)s2)C(c2ccccc2Cl)N=C(Nc2nc3ccc(C)cc3o2)N1 (centres unmarked)

>  <Metab. Stabil. (m)>
>30 m

$$$$
>  <compound>
CC1=C(C(=O)Nc2cc(C(=O)O)ccn2)C(c2ccc(C)cc2Cl)N=C(Nc2nc3c(o2)CCCC3)N1 (centres unmarked)

>  <Metab. Stabil. (m)>
>30 m

$$$$

---

Recorded pIC50 values for a group of compounds are listed next.
target: recombinant mouse GALK1 (Mus musculus); assay: mGALK1 biochemical activity assay (Kinase-Glo Plus, ATP depletion); conditions: recombinant mouse GALK1, Kinase-Glo Plus ATP depletion; read-out: mGALK
Sequence (Q9R0N0 whole entry): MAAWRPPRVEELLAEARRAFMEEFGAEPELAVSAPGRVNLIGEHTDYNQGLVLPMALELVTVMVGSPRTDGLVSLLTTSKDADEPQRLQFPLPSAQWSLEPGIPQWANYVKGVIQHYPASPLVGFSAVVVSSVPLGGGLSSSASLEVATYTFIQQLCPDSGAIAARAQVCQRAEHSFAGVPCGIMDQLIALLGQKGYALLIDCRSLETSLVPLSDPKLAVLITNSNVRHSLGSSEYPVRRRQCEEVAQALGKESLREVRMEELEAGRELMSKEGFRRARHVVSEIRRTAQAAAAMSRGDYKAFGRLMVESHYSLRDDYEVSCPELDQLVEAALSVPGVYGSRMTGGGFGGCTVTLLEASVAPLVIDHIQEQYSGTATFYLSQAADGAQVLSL
pIC50: −log10 of the molar value.
reported-property: pIC50

>  <compound>
CC1=C(C(=O)Nc2ccc(F)cc2)C(c2ccccc2Cl)N=C(Nc2nc3ccccc3o2)N1 (stereo not shown) [Compound 148]

>  <recorded-result>
4.91

$$$$
>  <compound>
CC1=C(C(=O)Nc2nnc(-c3cccnc3)s2)C(c2ccccc2Cl)N=C(Nc2nc3cc(Cl)ccc3o2)N1 (stereo not shown) [Compound 98]

>  <recorded-result>
4.71

$$$$
>  <compound>
CC1=C(C(=O)Nc2cc(C(=O)O)ccn2)[C@@H](c2ccccc2Cl)N=C(Nc2nc3cccc(N)c3o2)N1 [Compound 25]

>  <recorded-result>
4.46

$$$$
>  <compound>
CC1=C(C(=O)Nc2cc(CO)ccn2)C(c2ccccc2Cl)N=C(Nc2nc3ccc(F)cc3o2)N1 (stereo not shown) [Compound 37]

>  <recorded-result>
4.96

$$$$
>  <compound>
CC1=C(C(=O)NCc2cnn(C)c2)[C@@H](c2ccc(C)cc2Cl)N=C(Nc2nc3cccc(N)c3o2)N1 [Compound 116]

>  <recorded-result>
4.51

$$$$
>  <compound>
CC1=C(C(=O)Nc2nc(C(=O)O)cs2)C(c2ccccc2Cl)N=C(Nc2nc3ccccc3o2)N1 (stereo not shown) [Compound 200]

>  <recorded-result>
4.71

$$$$
>  <compound>
CC1=C(C(=O)Nc2cccc(CN)c2)C(c2ccccc2Cl)N=C(Nc2nc3ccccc3o2)N1 (stereo not shown) [Compound 171]

>  <recorded-result>
5.16

$$$$
>  <compound>
CC1=C(C(=O)Nc2cc(CO)ccn2)C(c2ccccc2Cl)N=C(Nc2nc3ccccc3o2)N1 (stereo not shown) [Compound 211]

>  <recorded-result>
5.01

$$$$
>  <compound>
CC1=C(C(=O)Nc2ccccn2)C(c2ccccc2Cl)N=C(Nc2nc3ccc(F)cc3o2)N1 (stereo not shown) [Compound 43]

>  <recorded-result>
4.96

$$$$
>  <compound>
CC1=C(C(=O)Nc2ccc(N(C)C)cc2)C(c2ccccc2Cl)N=C(Nc2nc3ccccc3o2)N1 (stereo not shown) [Compound 152]

>  <recorded-result>
4.86

$$$$
>  <compound>
CC1=C(C(=O)Nc2ccccc2)C(c2ccccc2Cl)N=C(Nc2nc3ccccc3o2)N1 (stereo not shown) [Compound 137]

>  <recorded-result>
4.86

$$$$
>  <compound>
CCn1nc(C)c(CNC(=O)C2=C(C)NC(Nc3nc4ccc(F)c(N)c4o3)=NC2c2ccc(C)cc2Cl)c1F (stereo not shown) [Compound 129]

>  <recorded-result>
5.66

$$$$
>  <compound>
CC1=C(C(=O)N2CCOCC2)C(c2ccccc2Cl)N=C(Nc2nc3ccccc3o2)N1 (stereo not shown) [Compound 145]

>  <recorded-result>
4.61

$$$$

---

Recorded Sol. values for a group of compounds are listed next.
test: aqueous kinetic solubility; conditions: aqueous kinetic solubility

>  <compound>
CC1=C(C(=O)Nc2ccccc2F)C(c2ccccc2Cl)N=C(Nc2nc3ccccc3o2)N1 (stereo not drawn) [Compound 157]

>  <Sol.>
<1 µg/mL

$$$$
>  <compound>
CC1=C(C(=O)NCc2cnn(C)c2)C(c2ccc(C)cc2Cl)N=C(Nc2nc3ccc(F)c(N)c3o2)N1 (stereo not drawn) [Compound 126]

>  <Sol.>
1.27 µg/mL

$$$$
>  <compound>
CC1=C(C(=O)NCc2ccccc2CO)C(c2ccccc2Cl)N=C(Nc2nc3ccccc3o2)N1 (stereo not drawn) [Compound 229]

>  <Sol.>
<1 µg/mL

$$$$

---

test: rat microsomal stability (RLM); conditions: microsomal half-life

>  <compound>
CC1=C(C(=O)Nc2cc(C(=O)O)ccn2)C(c2ccccc2Cl)N=C(Nc2nc3ccc(C)cc3o2)N1 (stereo not shown)

>  <Metab. Stabil. (m)>
>30 m

$$$$
>  <compound>
CC1=C(C(=O)NCc2cnn(C)c2)[C@@H](c2ccc(C)cc2Cl)N=C(Nc2nc3cccc(N)c3o2)N1

>  <Metab. Stabil. (m)>
7.868 m

$$$$
>  <compound>
CC1=C(C(=O)Nc2cc(C(=O)O)ccn2)[C@H](c2ccccc2Cl)N=C(Nc2nc3ccc(F)cc3o2)N1

>  <Metab. Stabil. (m)>
>30 m

$$$$
>  <compound>
CC1=C(C(=O)Nc2cc(C(=O)O)ccn2)C(c2cccc(C(N)=O)c2)N=C(Nc2nc3ccc(F)cc3o2)N1 (stereo not shown)

>  <Metab. Stabil. (m)>
>30 m

$$$$

---

Recorded Sol. values for a group of compounds are listed next.
test: aqueous kinetic solubility
reported-property: Sol.

>  <compound>
CC1=C(C(=O)Nc2ccc(C#N)cn2)C(c2ccccc2Cl)N=C(Nc2nc3ccc(F)cc3o2)N1 (stereo not drawn)

>  <recorded-result>
<1 µg/mL

$$$$
>  <compound>
CC1=C(C(=O)Nc2cc(C(=O)O)ccn2)[C@H](c2ccc(C)cc2Cl)N=C(Nc2nc3ccc(F)cc3o2)N1

>  <recorded-result>
>79 µg/mL

$$$$
>  <compound>
CC1=C(C(=O)Nc2cc(C(=O)O)ccn2)C(c2ccc(-c3ccc(C)nc3)cc2Cl)N=C(Nc2nc3ccc(F)cc3o2)N1 (stereo not drawn)

>  <recorded-result>
>90 µg/mL

$$$$

---

Recorded Sol. values for a group of compounds are listed next.
assay: aqueous kinetic solubility

>  <compound>
CC1=C(C(=O)Nc2cc(C(=O)O)ccn2)[C@H](c2ccc(C)cc2Cl)N=C(Nc2nc3cccc(N)c3o2)N1 [Compound 85]

>  <Sol.>
>53 µg/mL

$$$$
>  <compound>
CC1=C(C(=O)Nc2nnc(-c3cccnc3)s2)C(c2ccccc2Cl)N=C(Nc2nc3cc(F)ccc3o2)N1 (stereo not shown) [Compound 97]

>  <Sol.>
<1 µg/mL

$$$$
>  <compound>
CC1=C(C(=O)Nc2ccc(C(=O)O)cn2)C(c2ccccc2Cl)N=C(Nc2nc3ccc(F)cc3o2)N1 (stereo not shown) [Compound 26]

>  <Sol.>
>77 µg/mL

$$$$
>  <compound>
CC1=C(C(=O)Nc2cc(C(=O)O)ccn2)[C@@H](c2ccccc2Cl)N=C(Nc2nc3cccc(N)c3o2)N1 [Compound 25]

>  <Sol.>
>76 µg/mL

$$$$
>  <compound>
CC1=C(C(=O)Nc2cc(C(=O)O)ccn2)C(c2ccc(C)cc2Cl)N=C(Nc2ncc(-c3ccccc3)o2)N1 (stereo not shown) [Compound 103]

>  <Sol.>
42.2 µg/mL

$$$$
>  <compound>
CC1=C(C(=O)Nc2cc(C(=O)O)ccn2)C(c2ccccc2Cl)N=C(Nc2nc3cccc(N)c3o2)N1 (racemic) [Compound 3]

>  <Sol.>
>76 µg/mL

$$$$
>  <compound>
CC1=C(C(=O)Nc2cc(C(=O)O)ccn2)C(c2ccc(C)cc2Cl)N=C(Nc2nc3cccc(N)c3o2)N1 (racemic) [Compound 79]

>  <Sol.>
>78 µg/mL

$$$$
>  <compound>
CC1=C(C(=O)Nc2cc(C(=O)O)ccn2)C(c2ccccc2Cl)N=C(Nc2nc3cccc(F)c3o2)N1 (stereo not shown) [Compound 10]

>  <Sol.>
>77 µg/mL

$$$$
>  <compound>
COc1ccc2oc(NC3=NC(c4ccccc4Cl)C(C(=O)Nc4cc(C(=O)O)ccn4)=C(C)N3)nc2c1 (stereo not shown) [Compound 5]

>  <Sol.>
>79 µg/mL

$$$$
>  <compound>
CC1=C(C(=O)Nc2cc(C(=O)O)ccn2)C(c2ccccc2Cl)N=C(Nc2nc3c(Cl)cccc3o2)N1 (stereo not shown) [Compound 11]

>  <Sol.>
<1 µg/mL

$$$$
>  <compound>
CC1=C(C(=O)Nc2cc(-c3nn[nH]n3)ccn2)C(c2ccc(C)cc2Cl)N=C(Nc2nc3ccc(F)cc3o2)N1 (stereo not shown) [Compound 88]

>  <Sol.>
<1 µg/mL

$$$$
>  <compound>
CC1=C(C(=O)Nc2cc(C(=O)O)ccn2)[C@@H](c2ccc(C)cc2Cl)N=C(Nc2nc3cccc(N)c3o2)N1 [Compound 84]

>  <Sol.>
>78 µg/mL

$$$$
>  <compound>
CC1=C(C(=O)Nc2cc(C(=O)O)ccn2)C(c2cccc(N)c2Cl)N=C(Nc2nc3ccc(F)cc3o2)N1 (stereo not shown) [Compound 64]

>  <Sol.>
>79 µg/mL

$$$$
>  <compound>
CC1=C(C(=O)Nc2ccc(CO)cn2)C(c2ccccc2Cl)N=C(Nc2nc3ccc(F)cc3o2)N1 (stereo not shown) [Compound 42]

>  <Sol.>
<1 µg/mL

$$$$
>  <compound>
CC1=C(C(=O)NCc2c(C)nn(C)c2C)C(c2ccc(C)cc2Cl)N=C(Nc2nc3ccc(F)cc3o2)N1 (stereo not shown) [Compound 111]

>  <Sol.>
<1 µg/mL

$$$$
>  <compound>
CC1=C(C(=O)Nc2cc(C(=O)O)ccn2)C(c2ccc(-c3cnc(C)nc3)cc2Cl)N=C(Nc2nc3ccc(F)cc3o2)N1 (stereo not shown) [Compound 71]

>  <Sol.>
>90 µg/mL

$$$$
